- measurement.description: Cytotoxicity assay (AlamarBlue) in mock infected MT-2 cells
- Assay type: cell-based, human
- measurement.context: human
- Experimental: The present assay was used to screen candidate antiviral compounds by quantification of virus spread and production over several rounds of infection in vitro. […] Additionally, viral spread was quantified by measuring luciferase activity via a commercially available luciferase substrate. […] Compound toxicity was quantified 96 hours after treatment with AlamarBlue. […]

| molecule | CC50 at 96 h (µM) |
| --- | --- |
| CCOCc1cc(/C=C/C2NCCc3cc(OCc4ccccc4)c(OC)cc32)ccc1OC (stereo not shown) [EP] | 4 |

----------
- system.under.test: HIV-1 NL4-3 viral clone expressing Renilla luciferase
- measurement.description: microbe, parasite or virus in culture
- Format: cell-based
- measurement.context: MT-2 cells infected with HIV-1 NL4-3, 96 hours; read-out: EC50
pEC50: −log10 of the molar value.
measured.metric: pEC50

| compound | assay.result |
| --- | --- |
| COc1cc2c(cc1OCc1ccccc1)CCNC2/C=C/c1ccc2cn[nH]c2c1 (stereo not shown) [BT] | 6.21 |

----------
Item-by-item account of CC50
- Test system: MT-2 cells
- measurement.description: Cytotoxicity assay (AlamarBlue) in mock infected MT-2 cells
- Assay type: cell-based, human
- measurement.context: mock infected MT-2 cells, 96 hours, AlamarBlue; read-out: CC50
measured.metric: CC50 (µM)

| compound | system.under.test | measured.metric | assay.result |
| --- | --- | --- | --- |
| COc1cc(C)c(/C=C/C2c3cc(OC)c(OCc4ccccc4)cc3CCN2C(N)=O)cc1OCc1ccccc1 (stereo not drawn) | MT-2 cells | CC50 | 39.3 |
| COc1cc(C(C)(C)C)c(/C=C/C2NCCc3cc(OCc4ccccc4)c(OC)cc32)cc1OCc1ccccc1 (stereo not drawn) | MT-2 cells | CC50 | 5.36 |
| COc1ccc(/C=C/C2NCCc3cc(OCc4ccccc4)c(OC)cc32)c(C(F)(F)F)c1 (stereo not drawn) | MT-2 cells | CC50 | 100 |

All values here come from patent US10195189B2.
